Experiment: Pharmacokinetics of syringin and eleutheroside E in mice's serum after oral AS extract (HPLC, PKsolver)
Assay type: in vivo, Kun-Ming mice
Conditions: male, Kun-Ming, mouse, po, 235.7 mg/kg, Radiation-AS-Treatment (60Co-γ, 4 Gy), oral AS extract 235.7 mg/kg
METRIC: half-life
Number first, unit second: that is the form wanted.

Query block: Tell me the measured half-life of COc1cc(/C=C/CO)cc(OC)c1O[C@@H]1O[C@H](CO)[C@@H](O)[C@H](O)[C@H]1O , please.
Result block: 9.72 h

---

Test: Pharmacokinetics of syringin and eleutheroside E in mice's serum after oral AS extract (HPLC, PKsolver)
Type: in vivo, Kun-Ming mice
Conditions: male, Kun-Ming, mouse, po, 235.7 mg/kg, Normal-AS-Treatment, oral AS extract 235.7 mg/kg
METRIC: AUC(0-inf) (ng·h/mL)
Give bare numbers, in ng·h/mL.

Query block: Tell me the measured AUC(0-inf) of COc1cc(/C=C/CO)cc(OC)c1O[C@@H]1O[C@H](CO)[C@@H](O)[C@H](O)[C@H]1O , please.
Result block: 283

---

Assay: Pharmacokinetics of syringin and eleutheroside E in mice's serum after oral AS extract (HPLC, PKsolver)
Format: in vivo, Kun-Ming mice
Conditions: male, Kun-Ming, mouse, po, 235.7 mg/kg, Radiation-AS-Treatment (60Co-γ, 4 Gy), oral AS extract 235.7 mg/kg, read-out: Cmax
METRIC: Cmax

Query block: Tell me the measured Cmax of COc1cc(/C=C/CO)cc(OC)c1O[C@@H]1O[C@H](CO)[C@@H](O)[C@H](O)[C@H]1O , please.
Result block: 212 ng/mL

---

Test: Pharmacokinetics of syringin and eleutheroside E in mice's serum after oral AS extract (HPLC, PKsolver)
Format: in vivo, Kun-Ming mice
Conditions: male, Kun-Ming, mouse, po, 235.7 mg/kg, Normal-AS-Treatment, oral AS extract 235.7 mg/kg
METRIC: half-life (h)
Give bare numbers, in h.

Query block: Tell me the measured half-life of COc1cc(/C=C/CO)cc(OC)c1O[C@@H]1O[C@H](CO)[C@@H](O)[C@H](O)[C@H]1O [Syringin] , please.
Result block: 6.47

---

Assay: Pharmacokinetics of syringin and eleutheroside E in mice's serum after oral AS extract (HPLC, PKsolver)
Format: in vivo, Kun-Ming mice
Details: male, Kun-Ming, mouse, po, 235.7 mg/kg, Radiation-AS-Treatment (60Co-γ, 4 Gy), oral AS extract 235.7 mg/kg
METRIC: AUC(0-inf)
Number first, unit second: that is the form wanted.

Query block: Tell me the measured AUC(0-inf) of COc1cc(/C=C/CO)cc(OC)c1O[C@@H]1O[C@H](CO)[C@@H](O)[C@H](O)[C@H]1O [Syringin] , please.
Result block: 534 ng·h/mL
